Reference source: ChEMBL document CHEMBL4052802

Assay: Tmax in Sprague-Dawley rat at 0.2 mg/kg, po by LC-MS/MS analysis
Assay type: ADME, organism-based
Settings: in vivo
PROPERTY: Tmax

Input line: Entry CC(C)(C)NC(=O)[C@H]1CC[C@H]2[C@@H]3CC[C@H]4NC(=O)C=C[C@]4(C)[C@H]3CC[C@]12C [FINASTERIDE] has what Tmax?
Output line: 2.67 h

Input line: Look up Tmax for this molecule: Cc1ccc(NC(=O)[C@H]2CC[C@H]3[C@@H]4CC[C@H]5OC(=O)CC[C@]5(C)[C@H]4CC[C@]23C)cc1
Output line: 3.83 h

---

Molecular target: UniProtKB P10275
Test: Inhibition of recombinant human His-tagged/GST-fused androgen receptor LBD expressed in baculovirus expression system at 50 uM measured after 1.5 hrs by fluorescence polarization assay relative to control
Provide the recorded inhibition for the entries that follow.
Express your answer in %, writing the number without its unit.

Input line: Which measured inhibition value corresponds to CN(C(=O)[C@H]1CC[C@H]2[C@@H]3CC[C@H]4OC(=O)CC[C@]4(C)[C@H]3CC[C@]12C)c1ccccc1 ?
Output line: 14.3

Input line: Recorded inhibition of C[C@]12CCC(=O)O[C@@H]1CC[C@@H]1[C@@H]2CC[C@]2(C)[C@@H](C(=O)N(c3ccccc3)c3ccccc3)CC[C@@H]12 , please.
Output line: 3.29

Input line: Fill in: inhibition of C[C@]12CCC(=O)O[C@@H]1CC[C@@H]1[C@@H]2CC[C@]2(C)[C@@H](C(=O)N3CCCCC3)CC[C@@H]12 is ___
Output line: 17.4

Input line: Reported inhibition for CCN(CC)C(=O)[C@H]1CC[C@H]2[C@@H]3CC[C@H]4OC(=O)CC[C@]4(C)[C@H]3CC[C@]12C : what is it?
Output line: 33.7

Input line: What value of inhibition has been recorded for this entry: C[C@]12CCC(=O)O[C@@H]1CC[C@@H]1[C@@H]2CC[C@]2(C)[C@@H](C(=O)N(C3CCCCC3)C3CCCCC3)CC[C@@H]12
Output line: 11.3

---

Target: Androgen receptor (Homo sapiens) (UniProt P10275)
Assay: Inhibition of recombinant human His-tagged/GST-fused androgen receptor LBD expressed in baculovirus expression system at 50 uM measured after 1.5 hrs by fluorescence polarization assay relative to control
PROPERTY: inhibition (%)
Please give a number only; it is taken to be in %.

Input line: What is its inhibition for Androgen receptor (Homo sapiens) (UniProt P10275)? Entry: CC(C)(C)NC(=O)[C@H]1CC[C@H]2[C@@H]3CC[C@H]4OC(=O)CC[C@]4(C)[C@H]3CC[C@]12C
Output line: 3.73

Input line: Give the reported inhibition for C[C@]12CCC(=O)O[C@@H]1CC[C@@H]1[C@@H]2CC[C@]2(C)[C@@H](C(=O)Nc3ccc(F)cc3)CC[C@@H]12 (system: Androgen receptor (Homo sapiens) (UniProt P10275)).
Output line: 18.9

Input line: Query the reported inhibition for Androgen receptor (Homo sapiens) (UniProt P10275); item: C[C@]12CCC(=O)O[C@@H]1CC[C@@H]1[C@@H]2CC[C@]2(C)[C@@H](C(=O)N(Cc3ccccc3)Cc3ccccc3)CC[C@@H]12
Output line: 57.1

---

Record form. Attribute: IC50. Fill in for each entry.
Assay: Inhibition of rat liver 5alpha-reductase using testosterone as substrate incubated for 30 mins measured for 10 mins by fluorescence assay
Field: numeric (nM). Do not append units.

Input line: // returns reported IC50 for input Cc1ccc(NC(=O)[C@H]2CC[C@H]3[C@@H]4CC[C@H]5OC(=O)CC[C@]5(C)[C@H]4CC[C@]23C)cc1
Output line: 270

Input line: Can you look up the measured IC50 of C[C@]12CCC(=O)O[C@@H]1CC[C@@H]1[C@@H]2CC[C@]2(C)[C@@H](C(=O)N3CCCCC3)CC[C@@H]12 for me?
Output line: 6010

Input line: May I ask what IC50 has been recorded for CC(C)(C)NC(=O)[C@H]1CC[C@H]2[C@@H]3CC[C@H]4NC(=O)C=C[C@]4(C)[C@H]3CC[C@]12C [FINASTERIDE] ?
Output line: 590

Input line: Suppose we examine the compound CN(C(=O)[C@H]1CC[C@H]2[C@@H]3CC[C@H]4OC(=O)CC[C@]4(C)[C@H]3CC[C@]12C)c1ccccc1 ; what IC50 value has been reported?
Output line: 890
